Every entry's value here was drawn from ChEMBL document CHEMBL5137006.

Recorded pIC50 for the following compounds
measured target: UniProt P26358
Sequence (P26358 whole entry): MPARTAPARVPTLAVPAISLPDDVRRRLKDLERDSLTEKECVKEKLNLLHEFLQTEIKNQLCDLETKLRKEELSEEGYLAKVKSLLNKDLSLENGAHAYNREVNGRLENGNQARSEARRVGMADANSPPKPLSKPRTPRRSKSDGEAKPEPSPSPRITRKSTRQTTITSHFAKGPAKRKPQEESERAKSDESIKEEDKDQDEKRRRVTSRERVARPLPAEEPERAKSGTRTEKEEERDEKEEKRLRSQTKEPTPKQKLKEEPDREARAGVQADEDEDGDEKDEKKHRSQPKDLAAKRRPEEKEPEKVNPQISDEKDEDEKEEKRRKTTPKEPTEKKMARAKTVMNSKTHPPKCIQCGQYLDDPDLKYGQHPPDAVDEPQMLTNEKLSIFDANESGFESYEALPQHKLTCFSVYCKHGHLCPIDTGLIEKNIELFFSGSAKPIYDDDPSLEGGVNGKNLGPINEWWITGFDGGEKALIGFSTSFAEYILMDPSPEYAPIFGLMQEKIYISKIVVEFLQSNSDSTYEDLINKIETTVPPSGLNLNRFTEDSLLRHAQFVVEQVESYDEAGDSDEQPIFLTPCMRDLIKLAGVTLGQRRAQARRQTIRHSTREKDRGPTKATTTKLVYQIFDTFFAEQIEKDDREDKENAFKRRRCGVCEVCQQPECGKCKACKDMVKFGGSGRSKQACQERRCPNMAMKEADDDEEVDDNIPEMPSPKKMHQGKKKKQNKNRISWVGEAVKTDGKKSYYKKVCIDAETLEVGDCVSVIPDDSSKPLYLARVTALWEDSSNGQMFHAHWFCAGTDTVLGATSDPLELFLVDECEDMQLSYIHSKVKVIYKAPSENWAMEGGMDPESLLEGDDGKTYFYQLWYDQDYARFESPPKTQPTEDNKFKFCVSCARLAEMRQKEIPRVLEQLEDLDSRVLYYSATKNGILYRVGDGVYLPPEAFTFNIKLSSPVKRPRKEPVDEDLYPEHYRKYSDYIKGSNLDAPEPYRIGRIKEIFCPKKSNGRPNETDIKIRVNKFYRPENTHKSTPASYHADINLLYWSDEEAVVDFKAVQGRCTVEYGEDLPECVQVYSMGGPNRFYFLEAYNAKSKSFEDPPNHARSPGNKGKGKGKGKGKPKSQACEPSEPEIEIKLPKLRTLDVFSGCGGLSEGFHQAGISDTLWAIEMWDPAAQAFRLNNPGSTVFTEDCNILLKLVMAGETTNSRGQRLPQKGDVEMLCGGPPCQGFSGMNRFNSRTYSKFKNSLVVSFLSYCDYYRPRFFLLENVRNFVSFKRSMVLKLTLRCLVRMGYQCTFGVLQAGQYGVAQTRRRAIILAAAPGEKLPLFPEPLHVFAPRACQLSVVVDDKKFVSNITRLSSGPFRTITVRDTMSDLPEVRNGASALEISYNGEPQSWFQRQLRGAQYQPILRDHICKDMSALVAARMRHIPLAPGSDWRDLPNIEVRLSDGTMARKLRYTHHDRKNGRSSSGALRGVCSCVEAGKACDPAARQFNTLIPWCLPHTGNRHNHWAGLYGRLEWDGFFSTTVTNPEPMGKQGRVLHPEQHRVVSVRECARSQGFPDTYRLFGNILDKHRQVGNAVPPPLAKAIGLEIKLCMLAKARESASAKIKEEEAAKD
test: Inhibition of human recombinant full-length DNMT1 expressed in Sf9 cells assessed as inhibition of methylated dI-dC formation using poly dI-dC and [Me-3H]SAM as substrate incubated for 2 hrs by liquid scintillation counting analysis
pIC50: −log10 of the molar value.
recorded endpoint: pIC50

INSERT INTO assay_data (item_smiles, value_modifier, value_observed) VALUES
  ('Nc1nc(=O)n([C@H]2C[C@H](O)[C@@H](CO)O2)cc1CCCNC[C@H]1O[C@@H](n2cnc3c(N)ncnc32)[C@H](O)[C@@H]1O', '=', 4.99),
  ('Nc1nc(=O)n([C@H]2C[C@H](O)[C@@H](CO)O2)cc1CN(CC[C@H](N)C(=O)O)C[C@H]1O[C@@H](n2cnc3c(N)ncnc32)[C@H](O)[C@@H]1O', '=', 5.07),
  ('Nc1nc(=O)n([C@H]2C[C@H](O)[C@@H](CO)O2)cc1CCCSC[C@H]1O[C@@H](n2cnc3c(N)ncnc32)[C@H](O)[C@@H]1O', '<', 4.00);
